pIC50: −log10 of the molar value.
A compilation of pIC50 values for PIK3CG (human) (UniProt P48736) from the published literature.

Take a look at these entries with their results.
For the compound C[C@H](NC(=O)c1c(N)nn2cccnc12)c1cc2cccc(C=O)c2c(=O)n1-c1ccccc1 , what pIC50 is on record?
5.00 to 6.00

Next entry: Cc1nc(NC(=O)CCCN[C@@H](COC(C)(C)C)C(=O)OC2CCCC2)sc1-c1ccc(Cl)c(S(C)(=O)=O)c1
< 6.00

Shifting focus to the compound that follows.
For the compound COc1ccccc1-n1c(Cn2nc(Br)c3c(N)ncnc32)nc2scc(C)c2c1=O , what pIC50 is on record?
> 6.00
